target.desc: Tyrosyl-tRNA synthetase, putative (Trypanosoma cruzi (strain CL Brener))
assay.summary: Trypanosoma cruzi tyrosyl tRNA synthetase (TcYRS) _High Tyrosine SOP; further: in the data most compounds retested in dose-response had high values
Type: functional
Set-up: scale not given: direction of the effect not stated beside the values
stated.conditions: 30 µM
In this section, each of the molecules is paired with its reported Percent Effect.
readout: Percent Effect (%)

[
  {
    "molecule": "c1ccc(COC2CCN(c3cncc(-n4cccn4)n3)CC2)cc1",
    "unit.text": "%",
    "val": 8.91
  },
  {
    "molecule": "O=C1N(Cc2cccc(F)c2F)CCCC1(O)CN1CCCOCC1 (configuration not stated)",
    "unit.text": "%",
    "val": 4.92
  },
  {
    "molecule": "OCCOc1nc(-c2ccccc2Cl)no1",
    "unit.text": "%",
    "val": 6.45
  },
  {
    "molecule": "CC(C)c1nc(C2CCCN2C(=O)c2cnc[nH]2)no1 (configuration not stated)",
    "unit.text": "%",
    "val": 0
  },
  {
    "molecule": "O=C(NCCCn1cccn1)C1(c2ccc(Br)cc2)CC1",
    "unit.text": "%",
    "val": 4.3
  },
  {
    "molecule": "CC(C)c1nc2c(n1C)CCN(Cc1nc(-c3ccsc3)no1)C2",
    "unit.text": "%",
    "val": 9.9
  },
  {
    "molecule": "CCc1n[nH]c(C2CN(C(=O)c3cnc(C)s3)CCO2)n1 (configuration not stated)",
    "unit.text": "%",
    "val": 3.45
  },
  {
    "molecule": "Cn1cc(CN(Cc2ccccc2)CC(O)c2cccs2)cn1 (configuration not stated)",
    "unit.text": "%",
    "val": -1.07
  },
  {
    "molecule": "Cc1cnc2n(c1=O)CC(C(=O)Nc1ccccc1Cl)CS2 (configuration not stated)",
    "unit.text": "%",
    "val": 1.07
  },
  {
    "molecule": "Fc1ccc(OCCCN2CCOC(Cn3cncn3)C2)cc1 (configuration not stated)",
    "unit.text": "%",
    "val": 0
  },
  {
    "molecule": "O=C(CN1CCOC(Cn2cccn2)C1)NCCc1ccc(F)cc1 (configuration not stated)",
    "unit.text": "%",
    "val": -0.99
  },
  {
    "molecule": "COc1cccc(S(=O)(=O)NC(=O)COc2c(C)cccc2C)c1",
    "unit.text": "%",
    "val": 0
  }
]

====

Listed here: items and their measured Percent Effect.
target.desc: Tyrosyl-tRNA synthetase, putative (Trypanosoma cruzi (strain CL Brener))
assay.summary: Trypanosoma cruzi tyrosyl tRNA synthetase (TcYRS) _High Tyrosine SOP; further: in the data most compounds retested in dose-response had high values
Format: functional
Set-up: scale not given: direction of the effect not stated beside the values
stated.conditions: 30 µM

[
  {
    "compound": "O=c1oc(-c2cccs2)nn1CC(O)c1ccccc1 (configuration not stated)",
    "unit.text": "%",
    "Percent Effect": 10.4
  },
  {
    "compound": "CCOc1ccc(N(CC(=O)c2ccccc2)C2=NCCCCC2)cc1",
    "unit.text": "%",
    "Percent Effect": -1.06
  },
  {
    "compound": "CSCc1cccc(S(=O)(=O)NCCCO)c1",
    "unit.text": "%",
    "Percent Effect": 5.38
  },
  {
    "compound": "Cn1cccc1C(=O)N[C@@H]1CN(CC2CC2)[C@@H]2COC[C@@H]21",
    "unit.text": "%",
    "Percent Effect": 1.04
  },
  {
    "compound": "CS(=O)(=O)N1CCOC2(CCCN(c3cnccn3)C2)C1 (configuration not stated)",
    "unit.text": "%",
    "Percent Effect": 1.07
  },
  {
    "compound": "CC(CN1CCOCC1)NCc1nncn1C1CCCCC1 (configuration not stated)",
    "unit.text": "%",
    "Percent Effect": 6.32
  },
  {
    "compound": "CN(CCN1CCOCC1)C(=O)CCCc1ccccc1",
    "unit.text": "%",
    "Percent Effect": 5.32
  },
  {
    "compound": "Cc1nnc(NCC2(c3ccc(Cl)cc3Cl)CCOCC2)c(C#N)c1C",
    "unit.text": "%",
    "Percent Effect": 5.82
  },
  {
    "compound": "Cc1nc(CCNC(=O)C2CC(=O)N(C(C)(C)C)C2)sc1C (configuration not stated)",
    "unit.text": "%",
    "Percent Effect": 5.21
  },
  {
    "compound": "O=C(c1cccc2c1OCO2)N1CCCC1Cn1cccn1 (configuration not stated)",
    "unit.text": "%",
    "Percent Effect": 3.81
  },
  {
    "compound": "CN(C)C(=O)N1C[C@@H]2COC[C@]2(CNS(C)(=O)=O)C1",
    "unit.text": "%",
    "Percent Effect": 0
  },
  {
    "compound": "CS(=O)(=O)NC1CCCN(C(=O)NCc2cccnc2)C1 (configuration not stated)",
    "unit.text": "%",
    "Percent Effect": 7.62
  }
]

====

Tested on: Trypanosoma cruzi
assay.summary: Trypanosoma cruzi phosphomannomutase and mannose-1-phosphate guanylyltransferase assay
Type: functional
Design: scale not given: direction of the effect not stated beside the values
stated.conditions: 10 µM
readout: Percent Effect (%)

[
  {
    "compound": "COCCN(Cc1ccoc1)C(=O)c1cccnc1SC",
    "target.desc": "Trypanosoma cruzi",
    "readout": "Percent Effect",
    "val": -4.24
  },
  {
    "compound": "Cc1noc(NC(=O)c2ccc(OC(F)(F)F)cc2)n1",
    "target.desc": "Trypanosoma cruzi",
    "readout": "Percent Effect",
    "val": 2.52
  },
  {
    "compound": "Cc1ccoc1C(=O)N1C[C@@H]2[C@@H](C1)OCC(=O)N2Cc1cccnc1",
    "target.desc": "Trypanosoma cruzi",
    "readout": "Percent Effect",
    "val": -2.86
  },
  {
    "compound": "Cc1ccc(CC(=O)N2CCOC(c3nc(C)n[nH]3)C2)cn1 (stereo unspecified)",
    "target.desc": "Trypanosoma cruzi",
    "readout": "Percent Effect",
    "val": 3.79
  },
  {
    "compound": "CN(Cc1cccs1)C(=O)CS(=O)(=O)Cc1ccc(Cl)c(Cl)c1",
    "target.desc": "Trypanosoma cruzi",
    "readout": "Percent Effect",
    "val": 5.39
  },
  {
    "compound": "CCN(CC)C(=O)CCc1c(C)nc2cc(O)nn2c1C",
    "target.desc": "Trypanosoma cruzi",
    "readout": "Percent Effect",
    "val": -3.99
  },
  {
    "compound": "Cc1ccc(CN(C)C(=O)CN2CCOC(Cn3cncn3)C2)o1 (stereo unspecified)",
    "target.desc": "Trypanosoma cruzi",
    "readout": "Percent Effect",
    "val": -7.46
  },
  {
    "compound": "Cc1ccc(CNCc2nnc3n2CC(C(F)(F)F)CC3)cc1 (stereo unspecified)",
    "target.desc": "Trypanosoma cruzi",
    "readout": "Percent Effect",
    "val": 3.23
  },
  {
    "compound": "CC(C)(CNC(=O)CCOc1cccc(F)c1)C(N)=O",
    "target.desc": "Trypanosoma cruzi",
    "readout": "Percent Effect",
    "val": -7.14
  },
  {
    "compound": "CCC(=O)N1CCc2[nH]cnc2C12CCN(C(=O)CCS(C)(=O)=O)CC2",
    "target.desc": "Trypanosoma cruzi",
    "readout": "Percent Effect",
    "val": 4.37
  },
  {
    "compound": "CNS(=O)(=O)Cc1ccc(CNc2cncc(-n3cccn3)n2)cc1",
    "target.desc": "Trypanosoma cruzi",
    "readout": "Percent Effect",
    "val": 5.24
  }
]
